# test_target: Hck (UniProt P08631)
# Sequence (P08631 whole entry, looked up): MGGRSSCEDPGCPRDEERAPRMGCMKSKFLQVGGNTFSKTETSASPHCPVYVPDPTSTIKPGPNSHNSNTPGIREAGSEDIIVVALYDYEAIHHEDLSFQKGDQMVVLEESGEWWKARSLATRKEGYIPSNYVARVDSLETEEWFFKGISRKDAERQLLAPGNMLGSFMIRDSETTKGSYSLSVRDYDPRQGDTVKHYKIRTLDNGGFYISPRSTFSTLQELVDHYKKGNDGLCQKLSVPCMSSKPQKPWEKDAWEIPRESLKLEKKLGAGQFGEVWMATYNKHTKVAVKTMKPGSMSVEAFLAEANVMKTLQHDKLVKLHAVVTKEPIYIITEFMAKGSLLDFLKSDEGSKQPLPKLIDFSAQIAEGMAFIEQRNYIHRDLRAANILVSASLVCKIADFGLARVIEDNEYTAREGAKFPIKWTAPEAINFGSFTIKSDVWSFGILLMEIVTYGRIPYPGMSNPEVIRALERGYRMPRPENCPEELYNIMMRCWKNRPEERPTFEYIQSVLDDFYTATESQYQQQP
# experimental_details: phosphorylation enrichment, bacterial display (enrichment ratio); higher = better substrate or ligand; peptides without Tyr show the background;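 note: 11-residue human phosphosite peptides and single-mutation variants displayed on the E. coli surface, counted by deep sequencing, each peptide's frequency after selection divided by its frequency in the unselected input library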;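 note: frequency after pTyr selection over input frequency; kinase dosed for 20-30% of maximal phosphorylation in three min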
Classify as follows. Reported phosphorylation enrichment greater than or equal to 0.6: MET. Reported phosphorylation enrichment below: NOT MET.

residue_sequence | assigned_category
DGTGHYLCNAC [GATA5_Y208] | NOT MET
LEISPYMLSGR [LRRK2_Y1718] | MET
LQPNNYQFCGG [CSF1R_Y969] | MET
ADLLDYIKALN [HPRT1_Y81] | NOT MET
DTNIAYCLHPR [POMT1_Y581_W582C] | NOT MET
QGCSIYKDYYR [PLA2G2D_Y82] | MET
PLQSEYSSIST [ITGB4_Y1760_T1764S] | MET
MEYLPYGSLRD [JAK2_Y934] | MET
VGTKWYMAPEV [ACVRL1_Y375_R374W] | NOT MET
WCKPPYFSCAV [MMS22L_Y28] | NOT MET
VVTFSYKPAGN [RBL2_Y544_P547A] | NOT MET
GPRSLYNGLVA [UCP2_Y79] | MET
SAAAIYTVRHP [PMP22_Y117] | MET
LHAAAYWNALA [UQCRC2_Y182_R183W] | NOT MET
NPQKSYLIRLF [WAS_Y83_F84L_YF] | NOT MET
SKLTIYDARPS [MTM1_Y277] | MET
RGVTRYIYNRE [HLA-DQB1_Y62_Y58G] | MET
DEFLEHRRIVG [FAM221A_Y20_Y20H_YF] | NOT MET
PNATLYKMTSI [SERPINA7_Y40_S43T] | MET
QTLEAYIRWNK [SPAST_Y604] | NOT MET
RHPLDYLRQFP [NARS2_Y138_E137D_YF] | NOT MET
RLGNQYVNVMN [SLC3A1_Y461] | NOT MET
VDLSKCITTIA [FAS_Y232_Y232C] | NOT MET
DRPASYLDKVR [KRT17_Y98_L95P] | NOT MET

----------
# test_target: EPHB1 (UniProt P54762)
# Sequence (P54762 whole entry, looked up): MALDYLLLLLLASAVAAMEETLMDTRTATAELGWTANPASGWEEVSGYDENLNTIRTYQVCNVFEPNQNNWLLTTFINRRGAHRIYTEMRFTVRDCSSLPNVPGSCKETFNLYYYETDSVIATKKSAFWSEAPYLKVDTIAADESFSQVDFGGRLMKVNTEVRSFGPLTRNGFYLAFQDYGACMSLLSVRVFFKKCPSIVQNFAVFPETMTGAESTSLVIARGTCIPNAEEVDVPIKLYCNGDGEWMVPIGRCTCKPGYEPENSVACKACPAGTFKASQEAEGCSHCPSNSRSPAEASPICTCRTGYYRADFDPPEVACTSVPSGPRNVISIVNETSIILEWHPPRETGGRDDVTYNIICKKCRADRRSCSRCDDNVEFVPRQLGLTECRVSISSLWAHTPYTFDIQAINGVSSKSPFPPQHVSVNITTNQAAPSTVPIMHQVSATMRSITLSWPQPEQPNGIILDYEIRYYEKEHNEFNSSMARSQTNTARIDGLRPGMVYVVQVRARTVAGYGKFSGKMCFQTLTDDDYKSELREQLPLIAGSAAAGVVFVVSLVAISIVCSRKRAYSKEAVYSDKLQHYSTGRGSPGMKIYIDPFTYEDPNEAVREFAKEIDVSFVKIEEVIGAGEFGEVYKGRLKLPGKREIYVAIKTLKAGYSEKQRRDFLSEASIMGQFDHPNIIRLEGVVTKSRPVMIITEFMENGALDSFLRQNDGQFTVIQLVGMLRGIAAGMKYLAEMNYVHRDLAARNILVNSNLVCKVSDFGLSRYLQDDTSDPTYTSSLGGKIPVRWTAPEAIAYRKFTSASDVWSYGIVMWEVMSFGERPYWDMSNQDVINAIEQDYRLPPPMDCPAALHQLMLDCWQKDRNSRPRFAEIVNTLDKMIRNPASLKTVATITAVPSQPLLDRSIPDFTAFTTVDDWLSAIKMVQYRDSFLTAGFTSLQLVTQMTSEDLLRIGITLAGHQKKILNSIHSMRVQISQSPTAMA
# experimental_details: phosphorylation enrichment, bacterial display (enrichment ratio); higher = better substrate or ligand; peptides without Tyr show the background
Listing: phosphorylation enrichment of selected sequences

residue_sequence | phosphorylation enrichment
RILDVYIFLGP [GAA_Y340_G335R] | 0.842
VQVAYYTVMMN [SPATA17_Y84_M86V] | 2.88
EIKLAYRRRPP [GRIN2B_Y1109_E1106K] | 0.568
GFQPEYGQPAG [SYP_Y278_D277E_YF] | 0.501
PNEAVYTKMMT [G6PD_Y401] | 0.506
LVPAWYIGFLC [KCNQ2_Y237_T234P] | 0.599
LIEQAYDNLHE [PRPF8_Y871_P874L] | 0.623
TLLSAYQIPRT [GAB2_Y324_P320L] | 0.55
MEYLPYGSLRD [JAK2_Y934] | 2.63
KELAPYDENRF [RPS19_Y48_W52R] | 0.594
RNFVHYVQGLK [VWF_Y1400_R1399H] | 0.511
ENEGTYVCIAT [ADAMTSL3_Y1365] | 1.73
IQKKYYRAILE [CHD7_Y1218] | 0.396
QQLQGYVPSNY [FRK_Y99_I100V] | 0.552
HTVEDYQAIVD [CCT7_Y263] | 0.882
PMFTKYGNSLL [RPGRIP1L_Y196] | 1.07
GLTSTYAGIRK [ROBO1_Y932] | 0.303
DRKRQYELLKL [KIF4B_Y684] | 0.44
PLDGEYFTLQV [TP53_Y327_I332V] | 2.21
FGSGNYNVFGN [HNRNPA2B1_Y300_D302V_YF] | 0.481
CKPGFYNLKEK [LAMA1_Y490] | 0.543
SVVVPYERPEV [TP53_Y220_P222R] | 0.439
SPGGDYAAMGA [ERBB3_Y1276_G1271S] | 1.52
QEIATYRRLRE [KRT17_Y384_L388R] | 0.64
NSNSDYVDVLP [SH2D1B_Y127] | 4.08
QRRLVYYEGGA [RYR1_Y245] | 0.402
ECKLRYSRKEG [PTPN11_Y263_L262R] | 0.457
GGMAEYTRLHN [EHHADH_Y4] | 0.494
ATDLAYYLVRK [ASL_Y375] | 0.602
